test system: Hepatitis C virus; test: Antiviral activity against Hepatitis C virus; format: functional, organism-based, Hepacivirus hominis; conditions: Hepatitis C virus
pIC50: −log10 of the molar value. Non-standard residues stand in square brackets, D forms with d. Residues, ends and D or L forms follow the SMILES beside them. *: point of attachment. Dip = N[C@H](C(=O)O)C(c1ccccc1)c1ccccc1; Cha = N[C@@H](CC1CCCCC1)C(=O)O; NHPhenethyl = c1ccc(CCN*)cc1; NHBn = c1ccc(CN*)cc1
Label label 0 if pIC50 falls below 6; label label 1 in every other case.

Illustrative cases are given below, each with its answer.
# molecule, label
data = [
    ("O=C(O)[C@H](Cc1ccccc1)N(Cc1cccc(Br)c1)C(=O)c1ccc(Cl)cc1Cl", "label 0"),
    ("COc1ccc2c(O[C@@H]3C[C@H]4C(=O)N[C@]5(C(=O)O)C[C@H]5/C=C\\CCCCC[C@H](NC(=O)OC(C)(C)C)C(=O)N4C3)cc(-c3csc(N)n3)nc2c1", "label 1"),
]

pIC50 >= 6 for `CCC[C@]1(CC(=O)O)OCCc2c1[nH]c1c(C)cc(F)c(C#N)c21` ?
label 1

Try the molecule `CCC[C@@]1(CC(=O)O)OCCc2c1[nH]c1c(C)cc(F)c(C#N)c21`
label 1

Try the molecule `C[C@@]1(O)[C@H](O)[C@@H](CO)O[C@H]1n1ccc2c(N)nc(F)nc21`
label 0

Try the molecule `CC(C)(C)c1ccc(C(=O)CC(=O)C(=O)O)cc1`
label 0

Try the molecule CC(=O)N[C@@H](CC(=O)O)C(=O)N[C@@H](CCC(=O)O)C(=O)N[C@H](C(=O)N[C@@H](CCC(=O)O)C(=O)N[C@@H](CC1CCCCC1)C(=O)N[C@@H](CS)C(=O)NCCc1ccccc1)C(c1ccccc1)c1ccccc1 (Ac-DE[Dip]E[Cha]C-NHPhenethyl)
label 1

Try the molecule `C[C@@]1(O)[C@H](O)[C@@H](CO)O[C@H]1n1ncc2c(N)ncnc21`
label 0

Try the molecule CC(=O)N[C@@H](CC(=O)O)C(=O)N[C@@H](CCC(=O)O)C(=O)N[C@H](C(=O)N[C@@H](CCC(=O)O)C(=O)N[C@@H](CC1CCCCC1)C(=O)N[C@@H](CS)C(=O)NCc1ccccc1)C(c1ccccc1)c1ccccc1 (Ac-DE[Dip]E[Cha]C-NHBn)
label 1
